Hello, the source for this data is patent US9725460B2, in case you need it.

System: DU145
Experiment: Cancer cell proliferation assay, DU145
Assay type: cell-based
Conditions: Homo sapiens, DU-145; Table 1a; prostate cancer; read-out: IC50 (μM) DU145
Listing: IC50 of selected compounds
Assay readout: IC50 (µM)

{"Compound": "C=C1C(=O)[C@]23[C@H](O)[C@H]1CC[C@H]2[C@@]12CO[C@]3(O)[C@@H](O)[C@@H]1C(C)(C)Cc1sc(NC)nc12 [CYD-5-54]", "Numeric result": 4.05}
{"Compound": "C=C1C(=O)[C@]23[C@H](O)[C@H]1CC[C@H]2[C@@]12CO[C@]3(O)[C@@H](O)[C@@H]1C(C)(C)Cc1sc(NC(=N)N)nc12 [CYD-6-29]", "Numeric result": 35.9}
{"Compound": "C=C1C(=O)[C@@]23C(CC[C@H]1[C@H]2O)[C@@]12CO[C@]3(O)[C@@H](O)C1C(C)(C)Cc1sc(NC(C)=O)nc12 (stereo partly drawn) [CYD-6-21]", "Numeric result": 6.34}

---

Test system: AsPC1
Test: Cancer cell proliferation assay, AsPC1
Format: cell-based
Settings: Homo sapiens, ASPC1, read-out: Effect on proliferation AsPC1 (IC50)
pIC50: −log10 of the molar value.
Assay readout: pIC50

{"Compound": "C=C1C(=O)[C@@]23C(CC[C@H]1[C@H]2O)[C@@]12CO[C@]3(O)[C@@H](O)C1C(C)(C)Cc1sc(C)nc12 (stereo partly shown) [CYD-6-19]", "Numeric result": 5.19}

---

Assay: Aqueous solubility
Format: physicochemical
Settings: water; in the form of HCl salt; read-out: Aqueous solubility (saturated concentration)
The reader will find reported solubility values listed item by item below.

{"Compound": "C=C1C(=O)[C@]23[C@H](O)[C@H]1CC[C@H]2[C@@]12CO[C@]3(O)[C@@H](O)[C@@H]1C(C)(C)Cc1sc(NC(=N)N)nc12", "solubility": "> 100 mg/mL"}
{"Compound": "C=C1C(=O)[C@]23[C@H](O)[C@H]1CC[C@H]2[C@@]12CO[C@]3(O)[C@@H](O)[C@@H]1C(C)(C)Cc1sc(NC)nc12", "solubility": "81.2 mg/mL"}
{"Compound": "C=C1C(=O)[C@@]23C(CCC1[C@H]2O)[C@@]12COC3(O)[C@@H](O)C1C(C)(C)Cc1sc(NCCN3CCCCC3)nc12 (stereo in doubt)", "solubility": "> 100 mg/mL"}

---

// reported IC50 for each item listed
System: Panc-1
Assay: Cancer cell proliferation assay, Panc-1
Type: cell-based
Conditions: Homo sapiens, PANC-1; Table 2a; A-ring modified analogues; read-out: IC50 (μM) Panc-1
Assay readout: IC50

{"Molecule": "C=C1C(=O)[C@]23[C@H](O)[C@H]1CC[C@H]2[C@@]12CO[C@]3(O)[C@@H](O)[C@@H]1C(C)(C)C=CC2=O [CYD-6-58]", "Assay readout": "IC50", "Result": "> 10 µM"}
{"Molecule": "C=C1C(=O)[C@]23[C@H](O)[C@H]1CC[C@H]2[C@]12C=C[C@H](O)C(C)(C)[C@H]1[C@H](O)[C@@]3(O)OC2 [CYD-6-90]", "Assay readout": "IC50", "Result": "> 10 µM"}
{"Molecule": "C=C1C(=O)[C@]23[C@H](O)[C@H]1CC[C@H]2[C@@]12COC3(O)[C@@H](O)[C@@H]1C(C)(C)CC13CC[C@]4(CC(C)(C)[C@H]5[C@H](O)[C@]6(O)OC[C@]5(C4=O)[C@@H]4CC[C@H]5C(=C)C(=O)[C@]46[C@@H]5O)OC12O3 (stereo partly drawn) [CYD-6-39]", "Assay readout": "IC50", "Result": "> 10 µM"}
